Value source: PubChem BioAssay (NCATS)

Test system: CP305
Test: qHTS profiling for inhibitors of Plasmodium falciparum proliferation (AID 504749); further: nearly all actives have a fitted effect of over 60% in size
Details: P. falciparum in erythrocytes, SYBR Green DNA, 72 h; series mostly up to 28.7 µM
Experimental: NIH National Institute of Allergy and Infectious Diseases [NIAID] NIH Chemical Genomics Center [NCGC] […] Because mature erythrocytes lack DNA, only Plasmodium-derived DNA is detected. NCGC Assay Protocol Summary: The SYBR Green viability assay was adapted from a method described previously (Plouffe et al., 2008). […] The following morning, fluorescence intensity at 485(14) nm excitation and 535(25) nm emission wavelengths was measured on an EnVision (Perkin Elmer) plate reader. […]
Inconclusive results are not listed. Calls of active or inactive are those of the source. The call rests on the fitted dose curve; in most records, active means well fitted inhibition curve with a large enough effect; inconclusive means small, poorly fitted or top-dose-only effect; inactive means flat fitted curve, though single readings scatter.
Pick one and only one: 1 for active, -1 for inactive

**Query** Answer briefly: the call reported for `CC(C)C[C@H](NC(=O)[C@@H](O)[C@H](N)Cc1ccccc1)C(=O)O` in this assay.
**Result** 1

**Query** Answer briefly: the call reported for `NCCc1ccc(O)c(O)c1` in this assay.
**Result** -1

**Query** Answer briefly: the call reported for `N=c1nc(N2CCCCC2)cc(N)n1O` in this assay.
**Result** -1

**Query** Answer briefly: the call reported for `Cn1cnc([N+](=O)[O-])c1Sc1ncnc2nc[nH]c12` in this assay.
**Result** -1

**Query** Answer briefly: the call reported for `CCCc1nn(C)c2c(=O)[nH]c(-c3cc(S(=O)(=O)N4CCN(C)CC4)ccc3OCC)nc12` in this assay.
**Result** -1

**Query** Answer briefly: the call reported for `CCCc1nc2c(C)cc(-c3nc4ccccc4n3C)cc2n1Cc1ccc(-c2ccccc2C(=O)O)cc1` in this assay.
**Result** -1

====

System: C2A
Experiment: qHTS profiling for inhibitors of Plasmodium falciparum proliferation (AID 504749); further: nearly all actives have a fitted effect of over 60% in size
Settings: P. falciparum in erythrocytes, SYBR Green DNA, 72 h; series mostly up to 28.7 µM
Records with an inconclusive call do not appear. Calls of active or inactive are those of the source. The call rests on the fitted dose curve; in most records, active means well fitted inhibition curve with a large enough effect; inconclusive means small, poorly fitted or top-dose-only effect; inactive means flat fitted curve, though single readings scatter.
Pick one and only one: True (active), False (inactive)

**Query** Answer briefly: the call reported for `N=c1nc(N2CCCCC2)cc(N)n1O` in this assay.
**Result** False

**Query** Answer briefly: the call reported for `Cc1cn[nH]c1` in this assay.
**Result** False

**Query** Answer briefly: the call reported for NCCCC(N)(C(=O)O)C(F)F (stereo not given) in this assay.
**Result** False

**Query** Answer briefly: the call reported for `Clc1cccc(Cl)c1NC1=NCCN1` in this assay.
**Result** False

**Query** Answer briefly: the call reported for `Cc1[nH]c(=O)c(C#N)cc1-c1ccncc1` in this assay.
**Result** False

**Query** Answer briefly: the call reported for CC(c1cc2ccccc2s1)N(O)C(N)=O (stereo not given) in this assay.
**Result** False

**Query** Answer briefly: the call reported for CCc1ccc(CCOc2ccc(CC3SC(=O)NC3=O)cc2)nc1 (stereo not given) in this assay.
**Result** False

**Query** Answer briefly: the call reported for `Cc1oncc1C(=O)Nc1ccc(C(F)(F)F)cc1` in this assay.
**Result** False

**Query** Answer briefly: the call reported for Cc1c(C)c2c(c(C)c1O)CCC(C)(COc1ccc(CC3SC(=O)NC3=O)cc1)O2 (stereo not given) in this assay.
**Result** False

**Query** Answer briefly: the call reported for `O=c1n(CCCN2CCN(c3cccc(Cl)c3)CC2)nc2ccccn12` in this assay.
**Result** False

**Query** Answer briefly: the call reported for `NS(=O)(=O)c1cc2c(cc1Cl)NC=NS2(=O)=O` in this assay.
**Result** False

**Query** Answer briefly: the call reported for `CC(C)C[C@H](NC(=O)[C@@H](O)[C@H](N)Cc1ccccc1)C(=O)O` in this assay.
**Result** True

**Query** Answer briefly: the call reported for `CCCCNc1cc(C(=O)O)cc(S(N)(=O)=O)c1Oc1ccccc1` in this assay.
**Result** False

**Query** Answer briefly: the call reported for `NC(=O)c1cnccn1` in this assay.
**Result** False

**Query** Answer briefly: the call reported for `CN1CCN(CCCN2c3ccccc3Sc3ccc(C(F)(F)F)cc32)CC1` in this assay.
**Result** True

**Query** Answer briefly: the call reported for Oc1ccc(C2CNCCc3c2cc(O)c(O)c3Cl)cc1 (stereo not given) in this assay.
**Result** False

**Query** Answer briefly: the call reported for `Nc1nc2ccc(OC(F)(F)F)cc2s1` in this assay.
**Result** False

**Query** Answer briefly: the call reported for CC(C[N+](C)(C)C)OC(N)=O (stereo not given) in this assay.
**Result** False

**Query** Answer briefly: the call reported for `CCOC(=O)N1CCC(=C2c3ccc(Cl)cc3CCc3cccnc32)CC1` in this assay.
**Result** False

**Query** Answer briefly: the call reported for OC(CN1CCC(Cc2ccc(F)cc2)CC1)c1ccc(Cl)cc1 (stereo not given) in this assay.
**Result** False

====

Experiment: Quantitative High-Throughput drug screen in 47 multiple myeloma cell lines against the NCATS MIPE library collection: Karpas620_DSMZ cell viability assay (AID 1918959); further: nearly all actives have a fitted effect of over 30% in size
Details: Karpas620 myeloma viability, CellTiter-Glo ATP luminescence, 48 h; series mostly up to 45.8 µM
Records with an inconclusive call do not appear. The source made the active and inactive calls. Calls come from the whole dose curve; as a rule, active = well fitted cell-killing curve with a large enough effect; inconclusive = small, poorly fitted or top-dose-only effect, or effect the other way; inactive = no such curve, though single readings can be large or run the other way.
Pick one and only one: t (active), f (inactive)

**Query** Answer briefly: the call reported for `NC(N)=NC(=O)c1nc(Cl)c(N)nc1N` in this assay.
**Result** f

**Query** Answer briefly: the call reported for COc1ccc(CC2=NN3C([C@@H](CCc4ccccc4)[C@@H](C)O)=NC(C)C3C(=O)N2)cc1OC (some centres undefined) in this assay.
**Result** f

**Query** Answer briefly: the call reported for `Cc1csc(NC(=O)c2sc3nc4c(c(C(F)(F)F)c3c2N)CCC4)n1` in this assay.
**Result** f

**Query** Answer briefly: the call reported for `Nc1nc2c(ncn2COCCO)c(=O)[nH]1` in this assay.
**Result** f

**Query** Answer briefly: the call reported for CCC(C)n1ncn(-c2ccc(N3CCN(c4ccc(OC[C@H]5CO[C@](Cn6cncn6)(c6ccc(Cl)cc6Cl)O5)cc4)CC3)cc2)c1=O (some centres undefined) in this assay.
**Result** f

**Query** Answer briefly: the call reported for `COc1ccc(C2=N[C@H](c3ccc(Cl)cc3)[C@H](c3ccc(Cl)cc3)N2C(=O)N2CCNC(=O)C2)c(OC(C)C)c1` in this assay.
**Result** f

**Query** Answer briefly: the call reported for `CCOc1cc(C(=O)Nc2ccc(Cl)c(-c3nc4ccccc4[nH]3)c2)cc(OCC)c1OCC` in this assay.
**Result** t

**Query** Answer briefly: the call reported for `C[C@]12CC[C@H](O)CC1=CC[C@@H]1[C@H]2CC[C@]2(C)C(c3cccnc3)=CC[C@H]12` in this assay.
**Result** f

**Query** Answer briefly: the call reported for `OCCC#Cc1nc(-c2ccc(F)cc2)c(-c2ccncc2)n1CCCc1ccccc1` in this assay.
**Result** t

====

Assay: Quantitative High-Throughput drug screen in 47 multiple myeloma cell lines against the NCATS MIPE library collection: OCIMY1_PLB cell viability assay (AID 1918979); further: nearly all actives have a fitted effect of over 35% in size;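 on viability: 100% = DMSO-only wells and 0% = cell-free media-only wells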
Conditions: OCI-MY1 myeloma viability, CellTiter-Glo ATP, 48 h; series mostly up to 45.8 µM
Inconclusive results are not listed. Calls of active or inactive are those of the source. Calls come from the whole dose curve; as a rule, active = well fitted cell-killing curve with a large enough effect; inconclusive = small, poorly fitted or top-dose-only effect, or effect the other way; inactive = no such curve, though single readings can be large or run the other way.
Pick one and only one: TRUE (active), FALSE (inactive)

**Query** Answer briefly: the call reported for `CO[C@@H]1[C@H](N(C)C(=O)c2ccccc2)C[C@H]2O[C@]1(C)n1c3ccccc3c3c4c(c5c6ccccc6n2c5c31)C(=O)NC4` in this assay.
**Result** TRUE

**Query** Answer briefly: the call reported for CC(c1cc2ccccc2s1)N(O)C(N)=O (stereo not given) in this assay.
**Result** FALSE

**Query** Answer briefly: the call reported for `C[C@]12CC[C@H](O)CC1=CC[C@@H]1[C@H]2CC[C@]2(C)C(c3cccnc3)=CC[C@H]12` in this assay.
**Result** FALSE

**Query** Answer briefly: the call reported for `Cc1cc(C=c2sc3nc4ccccc4n3c2=O)c(C)n1-c1ccccc1` in this assay.
**Result** FALSE

**Query** Answer briefly: the call reported for `Cc1cc([C@@H](C)Nc2ccccc2C(=O)O)c2nc(N3CCOCC3)cc(=O)n2c1` in this assay.
**Result** TRUE

====

Provide the recorded Potency for the entries that follow.
Experiment: Cell Proliferation Assay Versus the ED40515 IL2 Dependent ATL cell lines (AID 1053195)
Details: ED40515 IL2-dependent ATL cells
Activity calls are given as the source filed them. Calls follow the shape of the full dose curve.

**Query** Reported Potency for `CS(=O)(=O)c1ccc(C(=O)Nc2ccc(Cl)c(-c3ccccn3)c2)c(Cl)c1` : what is it?
**Result** 13.2 µM (active)

**Query** Reported Potency for CCC(C)n1ncn(-c2ccc(N3CCN(c4ccc(OC[C@H]5CO[C@](Cn6cncn6)(c6ccc(Cl)cc6Cl)O5)cc4)CC3)cc2)c1=O (stereo partly drawn) : what is it?
**Result** 1.32 µM (active)

**Query** Reported Potency for `Cc1cc(-c2ccc(CC(=O)Nc3ccc(-c4cccnc4)cc3)cc2)ccn1` : what is it?
**Result** 4.18 µM (active)

**Query** Reported Potency for `COc1ccc(C2=N[C@H](c3ccc(Cl)cc3)[C@H](c3ccc(Cl)cc3)N2C(=O)N2CCNC(=O)C2)c(OC(C)C)c1` : what is it?
**Result** 20.9 µM (active)

**Query** Reported Potency for CCN(CC)CCCC(C)Nc1nc(C)cc(Nc2ccc3nc(C)cc(N)c3c2)n1 (stereo not drawn) : what is it?
**Result** 18.7 µM (active)

**Query** Reported Potency for `CN([C@@H](Cc1ccc(OS(=O)(=O)c2cccc3cnccc23)cc1)C(=O)N1CCN(c2ccccc2)CC1)S(=O)(=O)c1cccc2cnccc12` : what is it?
**Result** 6.62 µM (active)

**Query** Reported Potency for `CCc1cc(Nc2nccc(-c3c(-c4ccc(OC)c(C(=O)Nc5c(F)cccc5F)c4)nc4ccccn34)n2)c(OC)cc1N1CCC(N2CCN(S(C)(=O)=O)CC2)CC1` : what is it?
**Result** 1.66 µM (active)

**Query** Reported Potency for `CCc1cncnc1N1CCN(Cc2nc3ccc(C(F)(F)F)cc3[nH]2)CC1` : what is it?
**Result** 1.18 µM (active)
